Target: recombinant human PIM2 (Homo sapiens, UniProt Q9P1W9)
Sequence (Q9P1W9 whole entry): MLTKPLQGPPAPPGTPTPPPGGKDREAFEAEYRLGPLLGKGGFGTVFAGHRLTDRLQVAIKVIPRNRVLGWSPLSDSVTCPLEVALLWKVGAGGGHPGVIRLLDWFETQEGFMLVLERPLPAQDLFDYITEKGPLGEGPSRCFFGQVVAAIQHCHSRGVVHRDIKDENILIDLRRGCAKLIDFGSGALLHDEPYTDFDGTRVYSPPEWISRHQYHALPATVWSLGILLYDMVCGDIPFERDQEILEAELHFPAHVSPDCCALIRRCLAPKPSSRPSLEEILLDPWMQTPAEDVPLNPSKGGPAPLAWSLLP
Test: PIM-2 assay (33P-ATP filter plate)
Type: biochemical
Details: @ 2.5 uM, Table 6; read-out: PIM2: % inh @ 2.5 uM
MEASURED_METRIC: inhibition at 2.5 µM
Reply with the number and its unit after it.

Sample records with inhibition at 2.5 µM:
INSERT INTO results (record_smiles, value_reported) VALUES
  ('C[C@H](Nc1cncc(-c2csc(/C=C3\SC(=O)NC3=O)c2)n1)C1CC1', '99.4%'),
  ('O=C1NC(=O)/C(=C/c2cc(-c3cncc(N4CCCNCC4)n3)cs2)S1', '99.9%'),
  ('C[C@H](Nc1cncc(-c2cccc(/C=C3\SC(=O)NC3=O)c2)n1)C1CC1', '99.9%');

Q. Given the molecule "COc1ccc(/C=C2\SC(=O)NC2=O)cc1-c1cncc(N2CCCNCC2)n1" , what is its reported inhibition at 2.5 µM?
A. 98.5%

---

Target: recombinant human PIM2 (Homo sapiens)
Test: PIM-2 assay (33P-ATP filter plate)
Format: biochemical
Conditions: Table 5
Catalogue of IC50 readings, one per entry.

Sample records with IC50:
INSERT INTO measurements (record_smiles, measured_metric, value_reported) VALUES
  ('CC(C)(C)C(=O)N1CCCN(c2cncc(-c3cc(/C=C4/SC(=O)NC4=O)ccc3F)n2)CC1', 'IC50', '< 50 nM'),
  ('CN1CCCN(c2cncc(-c3ccc(/C=C4\SC(=S)NC4=O)c(F)c3)n2)CC1', 'IC50', '190 nM'),
  ('CN1CCCN(c2cncc(-c3cccc(/C=C4\SC(=O)N(C)C4=O)c3)n2)CC1', 'IC50', '2350 nM'),
  ('CN1CCCN(c2cncc(-c3ccc(/C=C4/SC(=O)NC4=O)c(F)c3)n2)CC1', 'IC50', '> 2500 nM'),
  ('CN1CCCN(c2cncc(-c3cncc(/C=C4\SC(=O)NC4=O)c3)n2)CC1', 'IC50', '< 50 nM'),
  ('CC(C)(C)CC(=O)N1CCCN(c2cncc(-c3cc(/C=C4/SC(=O)NC4=O)ccc3F)n2)CC1', 'IC50', '< 50 nM'),
  ('Cc1ccc(-c2cncc(N3CCCN(C)CC3)n2)cc1/C=C1\SC(=S)NC1=O', 'IC50', '< 50 nM'),
  ('O=C1NC(=O)/C(=C\c2ccc(F)c(-c3cncc(N4CCCN(C(=O)c5ccccc5F)CC4)n3)c2)S1', 'IC50', '< 50 nM');

Q. Given the molecule "COC(=O)N1CCCN(c2cncc(-c3cc(/C=C4/SC(=O)NC4=O)ccc3F)n2)CC1" , what is its reported IC50?
A. < 50 nM

Q. Repeat for the following molecule: "O=C1NC(=O)/C(=C\c2ccc(F)c(-c3cncc(N4CCCNCC4)n3)c2)S1"
A. < 50 nM

Q. Repeat for the following molecule: "O=C1NC(=O)/C(=C\c2ccc(F)c(-c3cncc(N4CCCN(C(=O)Oc5ccccc5)CC4)n3)c2)S1"
A. < 50 nM

Q. Repeat for the following molecule: "O=C1NC(=O)/C(=C\c2ccc(F)c(-c3cncc(N4CCCN(C(=O)C5CC5)CC4)n3)c2)S1"
A. < 50 nM

---

Biological target: recombinant human CK2 (Homo sapiens)
Construct: purchased Upstate
Assay: CK2 assay (cell-free, 33P-ATP filter plate)
Assay type: biochemical
Details: Table 1
MEASURED_METRIC: pIC50
Quick note: pIC50 means taking -log10 of the concentration in moles per liter.

Q. Given the compound "O=C1NC(=S)S/C1=C\c1ccc(-c2ccc(Cl)c(C(=O)O)c2)o1" , what is its reported pIC50?
A. 6.97

Q. Repeat for the following compound: "COCCNC(=O)c1cccc(-c2ccc(/C=C3\SC(=S)NC3=O)o2)c1"
A. 6.91

Q. Repeat for the following compound: COC(=O)c1cccc(-c2ccc(CC3SC(=S)NC3=O)o2)c1 (stereo not shown)
A. 8.52

Q. Repeat for the following compound: "O=C1NC(=S)S/C1=C\c1ccc(-c2cccc(C(=O)N3CC[C@@H](F)C3)c2)o1"
A. 7.59

Q. Repeat for the following compound: "O=C1NC(=S)S/C1=C\c1ccc(-c2cccc(C(=O)NN3CCCCC3)c2)o1"
A. 6.26

Q. Repeat for the following compound: "COCCNC(=O)c1ccc(Cl)c(-c2ccc(/C=C3\SC(=S)NC3=O)o2)c1"
A. 8.00

---

Biological target: recombinant human CK2 (Homo sapiens, UniProt P68400)
Construct: purchased Upstate
Sequence (P68400 whole entry): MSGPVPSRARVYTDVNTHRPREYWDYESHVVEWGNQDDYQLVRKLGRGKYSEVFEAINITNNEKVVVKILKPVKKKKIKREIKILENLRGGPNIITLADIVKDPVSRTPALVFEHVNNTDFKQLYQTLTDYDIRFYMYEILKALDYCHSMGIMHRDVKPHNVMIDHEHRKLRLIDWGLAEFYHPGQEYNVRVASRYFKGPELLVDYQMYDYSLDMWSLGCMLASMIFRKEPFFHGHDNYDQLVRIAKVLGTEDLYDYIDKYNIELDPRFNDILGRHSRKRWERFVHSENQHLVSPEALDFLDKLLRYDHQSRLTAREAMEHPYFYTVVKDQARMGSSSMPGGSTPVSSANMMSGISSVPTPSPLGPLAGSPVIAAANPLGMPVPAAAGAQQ
Sequence (P67870 whole entry partner): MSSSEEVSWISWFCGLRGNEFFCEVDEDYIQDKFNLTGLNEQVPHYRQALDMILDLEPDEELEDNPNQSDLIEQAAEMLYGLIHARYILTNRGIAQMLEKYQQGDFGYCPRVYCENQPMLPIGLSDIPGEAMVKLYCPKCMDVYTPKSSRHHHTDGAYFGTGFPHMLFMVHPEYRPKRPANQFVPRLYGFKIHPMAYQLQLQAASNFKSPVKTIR
Assay: CK2 assay (cell-free, 33P-ATP filter plate)
Type: biochemical
Details: Table 1
Catalogue of IC50 readings, one per entry.
Reply with the number and its unit after it.

Sample records with IC50:
INSERT INTO assay_data (compound, value_reported) VALUES
  ('CC(=O)NC1CCN(C(=O)c2cccc(-c3ccc(/C=C4\SC(=S)NC4=O)o3)c2)C1 (stereo not shown)', '444 nM'),
  ('O=C1NC(=S)S/C1=C\c1ccc(-c2cccc(C(=O)N3CCC[C@H]3CO)c2)o1', '37 nM'),
  ('O=C1NC(=S)S/C1=C\c1ccc(-c2ccc(C(=O)NCc3ccccn3)cc2)o1', '40 nM');

Now for a further compound.
Q. Given the compound "Cn1cncc1CNC(=O)c1ccc(-c2ccc(/C=C3\SC(=S)NC3=O)o2)cc1" , what is its reported IC50?
A. 108 nM

---

Target: recombinant human CK2 (Homo sapiens)
Construct: purchased Upstate
Assay: CK2 assay (cell-free, 33P-ATP filter plate)
Format: biochemical
Settings: Table 5
MEASURED_METRIC: pIC50
Quick note: pIC50 means taking -log10 of the concentration in moles per liter.

Q. Given the compound "COc1cc(OC)cc(C(=O)N2CCCN(c3cncc(-c4cc(/C=C5/SC(=O)NC5=O)ccc4F)n3)CC2)c1" , what is its reported pIC50?
A. 6.74

Q. Repeat for the following compound: "CN1CCCN(c2cncc(-c3cc(/C=C4\SC(=O)NC4=O)ccc3Cl)n2)CC1"
A. 7.04

Q. Repeat for the following compound: "CN1CCCN(c2cncc(-c3cncc(/C=C4\SC(=O)NC4=O)c3)n2)CC1"
A. 7.97

Q. Repeat for the following compound: "Cc1ccc(-c2cncc(N3CCCN(C)CC3)n2)cc1/C=C1\SC(=O)NC1=O"
A. 7.30

---

Test system: MiaPaca human pancreatic carcinoma cells
Experiment: Alamar Blue cell proliferation assay, MiaPaCa
Assay type: cell-based
Settings: MIA PaCa-2, Table 2, read-out: AB: MiaPaCa IC50
Protocol: A representative cell-proliferation assay protocol using Alamar Blue dye (stored at 4° C., use 20 ul per well) is described hereafter. a. Split and trypsinize cells. b. Count cells using hemocytometer. c. Plate 4,000-5,000 cells per well in 100 μl of medium and seed into a 96-well plate according to the following plate layout. Add cell culture medium only to wells B10 to B12. […] h. Record fluorescence at an excitation wavelength of 544 nm and emission wavelength of 590 nm using a microplate reader. […]
pIC50: −log10 of the molar value.
MEASURED_METRIC: pIC50

INSERT INTO results (record_smiles, value_reported) VALUES
  ('CN1CCCN(C(=O)c2cccc(-c3ccc(/C=C4/SC(=O)NC4=O)o3)c2)CC1', '< 5.00');

Q. Given the molecule "CN1CCCN(C(=O)c2ccc(-c3ccc(/C=C4/SC(=O)NC4=O)o3)cc2)CC1" , what is its reported pIC50?
A. < 5.00

Q. Repeat for the following molecule: "O=C1NC(=O)/C(=C\c2ccc(-c3ccc(C(=O)O)cc3)o2)S1"
A. < 5.00

---

Test system: SUM-149PT
Test: Alamar Blue cell proliferation assay, SUM-149PT
Format: cell-based
Details: Homo sapiens, SUM149PT, Table 5, read-out: AB: SUM-149PT IC50
Catalogue of IC50 readings, one per entry.
# output: bare number, implied unit µM

Q. Tell me reported IC50 for "O=C1NC(=O)/C(=C\c2ccc(F)c(-c3cncc(N4CCCNCC4)n3)c2)S1" , tested with SUM-149PT.
A. 2.35

Q. Repeat for the following molecule: "CC(C)(C)CC(=O)N1CCCN(c2cncc(-c3cc(/C=C4/SC(=O)NC4=O)ccc3F)n2)CC1"
A. 1.46

Q. Repeat for the following molecule: "O=C1NC(=O)/C(=C\c2ccc(F)c(-c3cncc(N4CCCN(C(=O)C5CC5)CC4)n3)c2)S1"
A. 3.94

Q. Repeat for the following molecule: "O=C1NC(=O)/C(=C\c2ccc(F)c(-c3cncc(N4CCCN(C(=O)c5ccccc5F)CC4)n3)c2)S1"
A. 2.61

Q. Repeat for the following molecule: "CN1CCCN(c2cncc(-c3cc(/C=C4\SC(=O)NC4=O)ccc3F)n2)CC1"
A. 1.55

Q. Repeat for the following molecule: "CC(C)NC(=O)N1CCCN(c2cncc(-c3cc(/C=C4/SC(=O)NC4=O)ccc3F)n2)CC1"
A. 1.56

Q. Repeat for the following molecule: "CC(C)(C)C(=O)N1CCCN(c2cncc(-c3cc(/C=C4/SC(=O)NC4=O)ccc3F)n2)CC1"
A. 1.02

Q. Repeat for the following molecule: "O=C1NC(=O)/C(=C\c2ccc(F)c(-c3cncc(N4CCCN(C(=O)Nc5ccccc5)CC4)n3)c2)S1"
A. 6.15

Q. Repeat for the following molecule: "COC(=O)N1CCCN(c2cncc(-c3cc(/C=C4/SC(=O)NC4=O)ccc3F)n2)CC1"
A. 2.05

Q. Repeat for the following molecule: "CN1CCCN(c2cncc(-c3cc(/C=C4\SC(=S)NC4=O)ccc3F)n2)CC1"
A. 0.315

Q. Repeat for the following molecule: "O=C1NC(=O)/C(=C\c2ccc(F)c(-c3cncc(N4CCCN(C(=O)OCc5ccccc5)CC4)n3)c2)S1"
A. 8.28

Q. Repeat for the following molecule: "Cc1ccc(-c2cncc(N3CCCN(C)CC3)n2)cc1/C=C1\SC(=O)NC1=O"
A. 8.7

Q. Repeat for the following molecule: "Cc1ccc(-c2cncc(N3CCCN(C)CC3)n2)cc1/C=C1\SC(=S)NC1=O"
A. 25.7

Q. Repeat for the following molecule: "O=C1NC(=O)/C(=C\c2ccc(F)c(-c3cncc(N4CCCN(C(=O)Oc5ccccc5)CC4)n3)c2)S1"
A. 6.69

Q. Repeat for the following molecule: "CCOC(=O)N1CCCN(c2cncc(-c3cc(/C=C4/SC(=O)NC4=O)ccc3F)n2)CC1"
A. 4.18
